Biological target: Transient receptor potential cation channel subfamily V member 1 (Rattus norvegicus)
Sequence (O35433 whole entry): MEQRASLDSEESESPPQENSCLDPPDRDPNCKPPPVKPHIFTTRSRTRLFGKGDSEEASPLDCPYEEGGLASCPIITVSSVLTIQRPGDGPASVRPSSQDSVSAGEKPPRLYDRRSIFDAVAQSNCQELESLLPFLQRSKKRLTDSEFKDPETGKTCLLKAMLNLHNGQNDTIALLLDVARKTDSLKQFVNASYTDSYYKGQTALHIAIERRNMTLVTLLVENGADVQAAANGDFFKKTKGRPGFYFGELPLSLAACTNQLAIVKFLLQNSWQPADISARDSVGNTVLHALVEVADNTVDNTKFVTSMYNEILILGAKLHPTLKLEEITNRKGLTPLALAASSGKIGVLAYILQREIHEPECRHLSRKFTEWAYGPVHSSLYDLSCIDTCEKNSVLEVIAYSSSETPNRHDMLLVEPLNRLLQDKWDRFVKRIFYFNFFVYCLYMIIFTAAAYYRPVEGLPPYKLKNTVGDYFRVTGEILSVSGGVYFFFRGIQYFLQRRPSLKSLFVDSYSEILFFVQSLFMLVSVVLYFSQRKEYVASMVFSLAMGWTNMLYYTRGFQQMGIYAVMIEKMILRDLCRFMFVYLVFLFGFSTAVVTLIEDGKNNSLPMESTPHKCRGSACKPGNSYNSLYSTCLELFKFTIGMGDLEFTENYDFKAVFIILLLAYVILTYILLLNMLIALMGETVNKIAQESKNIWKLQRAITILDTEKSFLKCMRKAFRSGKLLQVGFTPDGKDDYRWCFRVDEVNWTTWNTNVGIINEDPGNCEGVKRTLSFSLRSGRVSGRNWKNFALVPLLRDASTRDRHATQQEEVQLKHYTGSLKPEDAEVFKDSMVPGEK
Test: Competition Binding Assay and Inhibition of Ca2+ Uptake Assay
Settings: pH 7.4; 37 °C
Experimental: Binding assay mixtures were set up and contained [3H] RTX, various concentrations of competing ligands, and rVR1-transfected CHO cells. Nonspecific binding was determined in the presence of 100 nM nonradioactive RTX. After the binding reaction, membrane-bound RTX was separated from the free by centrifugation, and the radioactivity was determined by scintillation counting. […]
A collection of molecules and their measured pKi
Remember the convention: pKi equals -log10 of concentration in molar.

molecule	target desc	reading
C[C@@H](C(=O)NC[C@@H](COC(=O)C(C)(C)C)Cc1ccccc1)c1ccc(NS(C)(=O)=O)c(F)c1	Transient receptor potential cation channel subfamily V member 1 (Rattus norvegicus)	6.69
C=C(C)[C@]12C[C@@H](C)[C@@]34OC(Cc5ccccc5)(O[C@@H]1[C@@H]3C=C(COC(=O)Cc1cc(I)c(O)c(OC)c1)C[C@]1(O)C(=O)C(C)=C[C@@H]41)O2	Transient receptor potential cation channel subfamily V member 1 (Rattus norvegicus)	7.91
COc1cc(C(C)C(=O)NCC(COC(=O)C(C)(C)C)Cc2ccc(C)c(C)c2)ccc1NS(C)(=O)=O (stereo not given)	Transient receptor potential cation channel subfamily V member 1 (Rattus norvegicus)	7.87
C[C@@H](C(=O)NC[C@H](COC(=O)C(C)(C)C)Cc1ccccc1)c1ccc(NS(C)(=O)=O)c(F)c1	Transient receptor potential cation channel subfamily V member 1 (Rattus norvegicus)	7.01
CC(C(=O)NCC(COC(=O)C(C)(C)C)Cc1ccc(C(C)(C)C)cc1)c1ccc(NS(C)(=O)=O)c(F)c1 (stereo not drawn) [diastereomeric mixture]	Transient receptor potential cation channel subfamily V member 1 (Rattus norvegicus)	8.49
COc1cc(C2(C(=O)NCC(COC(=O)C(C)(C)C)Cc3ccc(C)c(C)c3)CC2)ccc1NS(C)(=O)=O (stereo not given)	Transient receptor potential cation channel subfamily V member 1 (Rattus norvegicus)	6.93

Record summary for Cc1ccc(CC(CNC(=O)C2(c3ccc(NS(C)(=O)=O)cc3)CC2)COC(=O)C(C)(C)C)cc1C (stereo not given) : reported pKi = 6.71

Record summary for `C[C@@H](C(=O)NC[C@@H](COC(=O)C(C)(C)C)Cc1ccc(C(C)(C)C)cc1)c1ccc(NS(C)(=O)=O)c(F)c1` : reported pKi = 6.85

Record summary for Cc1ccc(CC(CNC(=O)C(C)(C)c2ccc(NS(C)(=O)=O)cc2)COC(=O)C(C)(C)C)cc1C (stereo not given) : reported pKi = 6.98

Record summary for `C[C@H](C(=O)NC[C@H](COC(=O)C(C)(C)C)Cc1ccc(C(C)(C)C)cc1)c1ccc(NS(C)(=O)=O)c(F)c1` : reported pKi = 9.24

Record summary for `C[C@H](C(=O)NC[C@H](COC(=O)C(C)(C)C)Cc1ccc(C(C)(C)C)cc1)c1ccc(NS(C)(=O)=O)c(Cl)c1` : reported pKi = 8.28

Record summary for Cc1ccc(CC(CNC(=O)C(C)c2ccc(NS(C)(=O)=O)cc2)COC(=O)C(C)(C)C)cc1C (stereo not given) : reported pKi = 7.42

Record summary for CC(C)(C)C(=O)OCC(CNC(=S)NCc1ccc(NS(C)(=O)=O)c(F)c1)Cc1ccc(C(C)(C)C)cc1 (stereo not given) : reported pKi = 7.28

Record summary for `C[C@H](C(=O)NC[C@@H](COC(=O)C(C)(C)C)Cc1ccc(C(C)(C)C)cc1)c1ccc(NS(C)(=O)=O)c(F)c1` : reported pKi = 7.96

Record summary for Cc1ccc(CC(CNC(=O)C(C)c2ccc(NS(C)(=O)=O)c(Cl)c2)COC(=O)C(C)(C)C)cc1C (stereo not given) : reported pKi = 7.44
